- testSettings: Sprague-Dawley, rat, in vivo, po
Here, each record is paired with measured Exposure Ratio Cmax data.
The reply should be a number in %, with the unit left off.

These solved cases illustrate the format of a correct answer.
CC(C)[C@H](N)C(=O)N[C@H](C(=O)Oc1ccc2c(c1)[C@]13CCCC[C@@H]1C(C2)N(C)CC3)C(C)C	128
CC(=O)N[C@@H](CCC(=O)O)C(=O)Oc1ccc2c(c1)[C@]13CCCC[C@@H]1C(C2)N(C)CC3	14
CC(=O)N[C@@H](Cc1ccccc1)C(=O)Oc1ccc2c(c1)[C@]13CCCC[C@@H]1[C@H](C2)N(C)CC3	18

### Prompt Item under review: C[C@@H](N)C(=O)N[C@H](C)C(=O)Oc1ccc2c(c1)[C@]13CCCC[C@@H]1C(C2)N(C)CC3 . Reported Exposure Ratio Cmax?
### Response 43

### Prompt Item under review: C[C@H](N)C(=O)N[C@@H](C)C(=O)Oc1ccc2c(c1)[C@]13CCCC[C@@H]1C(C2)N(C)CC3 . Reported Exposure Ratio Cmax?
### Response 217

* * *

- testSettings: Sprague-Dawley, rat, in vivo, po, 6 mg/kg
measuredMetric: Cmax

CC(=O)N[C@H](C)C(=O)Oc1ccc2c(c1)[C@]13CCCC[C@@H]1C(C2)N(C)CC3	16.5 ng/mL
C[C@@H](N)C(=O)N[C@H](C)C(=O)Oc1ccc2c(c1)[C@]13CCCC[C@@H]1C(C2)N(C)CC3	9.6 ng/mL
CC(=O)N[C@H](Cc1ccccc1)C(=O)Oc1ccc2c(c1)[C@]13CCCC[C@@H]1[C@H](C2)N(C)CC3	4.7 ng/mL

### Prompt Item under review: CC[C@@H](C)[C@@H](NC(C)=O)C(=O)Oc1ccc2c(c1)[C@]13CCCC[C@@H]1C(C2)N(C)CC3 . Reported Cmax?
### Response 81.9 ng/mL

### Prompt Item under review: CC(=O)N[C@@H](C)C(=O)Oc1ccc2c(c1)[C@]13CCCC[C@@H]1C(C2)N(C)CC3 . Reported Cmax?
### Response 18.2 ng/mL

### Prompt Item under review: C[C@H](N)C(=O)N[C@@H](C)C(=O)Oc1ccc2c(c1)[C@]13CCCC[C@@H]1C(C2)N(C)CC3 . Reported Cmax?
### Response 87.3 ng/mL

### Prompt Item under review: CC(=O)N[C@H](CCC(=O)O)C(=O)Oc1ccc2c(c1)[C@]13CCCC[C@@H]1C(C2)N(C)CC3 . Reported Cmax?
### Response 3.5 ng/mL

### Prompt Item under review: CC(=O)N[C@@H](CCC(=O)O)C(=O)Oc1ccc2c(c1)[C@]13CCCC[C@@H]1C(C2)N(C)CC3 . Reported Cmax?
### Response 4.8 ng/mL

### Prompt Item under review: CC(C)[C@H](N)C(=O)N[C@H](C(=O)Oc1ccc2c(c1)[C@]13CCCC[C@@H]1C(C2)N(C)CC3)C(C)C . Reported Cmax?
### Response 98.9 ng/mL

### Prompt Item under review: CC(=O)N[C@H](C(=O)Oc1ccc2c(c1)[C@]13CCCC[C@@H]1C(C2)N(C)CC3)C(C)C . Reported Cmax?
### Response 12.6 ng/mL

* * *

- testSettings: rat, in vivo, po
measuredMetric: Cmax compared to dextrorphan tartrate

These solved cases illustrate the format of a correct answer.
CC(=O)N[C@@H](Cc1ccccc1)C(=O)Oc1ccc2c(c1)[C@]13CCCC[C@@H]1[C@H](C2)N(C)CC3	much smaller
CC(=O)N[C@@H](C)C(=O)Oc1ccc2c(c1)[C@]13CCCC[C@@H]1C(C2)N(C)CC3	much smaller
CC(=O)N[C@H](C)C(=O)Oc1ccc2c(c1)[C@]13CCCC[C@@H]1C(C2)N(C)CC3	much smaller
CC(C)[C@@H](NC(=O)[C@@H](C)N)C(=O)Oc1ccc2c(c1)[C@]13CCCC[C@@H]1C(C2)N(C)CC3	larger
CC[C@@H](C)[C@@H](NC(C)=O)C(=O)Oc1ccc2c(c1)[C@]13CCCC[C@@H]1C(C2)N(C)CC3	much smaller

### Prompt Item under review: CC(=O)N[C@@H](CCC(=O)O)C(=O)Oc1ccc2c(c1)[C@]13CCCC[C@@H]1C(C2)N(C)CC3 . Reported Cmax compared to dextrorphan tartrate?
### Response much smaller

* * *

Here, each record is paired with measured Tmax data.
- testSettings: Sprague-Dawley, rat, in vivo, po, 6 mg/kg
Units required after the number.

These solved cases illustrate the format of a correct answer.
CC(=O)N[C@@H](CCC(=O)O)C(=O)Oc1ccc2c(c1)[C@]13CCCC[C@@H]1C(C2)N(C)CC3	1.8 h
CC(=O)N[C@H](C(=O)Oc1ccc2c(c1)[C@]13CCCC[C@@H]1C(C2)N(C)CC3)C(C)C	2.8 h
C[C@@H](N)C(=O)N[C@H](C)C(=O)Oc1ccc2c(c1)[C@]13CCCC[C@@H]1C(C2)N(C)CC3	2.1 h
CC(=O)N[C@H](Cc1ccccc1)C(=O)Oc1ccc2c(c1)[C@]13CCCC[C@@H]1[C@H](C2)N(C)CC3	5.0 h
CC(=O)N[C@@H](C(=O)Oc1ccc2c(c1)[C@]13CCCC[C@@H]1C(C2)N(C)CC3)C(C)C	3.0 h
CC(=O)N[C@@H](C)C(=O)Oc1ccc2c(c1)[C@]13CCCC[C@@H]1C(C2)N(C)CC3	0.7 h

API: the following record is the query input.
### Prompt Item under review: C[C@H](N)C(=O)N[C@@H](C)C(=O)Oc1ccc2c(c1)[C@]13CCCC[C@@H]1C(C2)N(C)CC3 . Reported Tmax?
### Response 0.8 h

* * *

- testSettings: Sprague-Dawley, rat, in vivo, po, 6 mg/kg
Outcome label depends on Tmax relative to 2 h: at/above gives condition met, below gives condition not met.

### Prompt Identify whether the reported Tmax of the following compound is 2 h or greater: CC[C@@H](C)[C@@H](NC(C)=O)C(=O)Oc1ccc2c(c1)[C@]13CCCC[C@@H]1C(C2)N(C)CC3
### Response condition met

### Prompt Identify whether the reported Tmax of the following compound is 2 h or greater: CC(=O)N[C@@H](Cc1ccccc1)C(=O)Oc1ccc2c(c1)[C@]13CCCC[C@@H]1[C@H](C2)N(C)CC3
### Response condition met

### Prompt Identify whether the reported Tmax of the following compound is 2 h or greater: CC(=O)N[C@H](C)C(=O)Oc1ccc2c(c1)[C@]13CCCC[C@@H]1C(C2)N(C)CC3
### Response condition not met

### Prompt Identify whether the reported Tmax of the following compound is 2 h or greater: CC(C)[C@H](N)C(=O)N[C@H](C(=O)Oc1ccc2c(c1)[C@]13CCCC[C@@H]1C(C2)N(C)CC3)C(C)C
### Response condition not met

### Prompt Identify whether the reported Tmax of the following compound is 2 h or greater: CC[C@H](C)[C@H](NC(C)=O)C(=O)Oc1ccc2c(c1)[C@]13CCCC[C@@H]1C(C2)N(C)CC3
### Response condition met

### Prompt Identify whether the reported Tmax of the following compound is 2 h or greater: CC(=O)N[C@H](CCC(=O)O)C(=O)Oc1ccc2c(c1)[C@]13CCCC[C@@H]1C(C2)N(C)CC3
### Response condition met

* * *

- testSettings: rat, in vivo, po
measuredMetric: AUC compared to dextrorphan tartrate

CC(C)[C@@H](NC(=O)[C@@H](C)N)C(=O)Oc1ccc2c(c1)[C@]13CCCC[C@@H]1C(C2)N(C)CC3	larger
C[C@H](N)C(=O)N[C@@H](C)C(=O)Oc1ccc2c(c1)[C@]13CCCC[C@@H]1C(C2)N(C)CC3	larger
C[C@@H](N)C(=O)N[C@H](C)C(=O)Oc1ccc2c(c1)[C@]13CCCC[C@@H]1C(C2)N(C)CC3	lower

* * *

Here, each record is paired with measured Cmax data.
- testSettings: Sprague-Dawley, rat, in vivo, po, 6 mg/kg
The reply should be a number in ng/mL, with the unit left off.

### Prompt Item under review: CC[C@H](C)[C@H](NC(C)=O)C(=O)Oc1ccc2c(c1)[C@]13CCCC[C@@H]1C(C2)N(C)CC3 . Reported Cmax?
### Response 13.9

### Prompt Item under review: CC(=O)N[C@@H](Cc1ccccc1)C(=O)Oc1ccc2c(c1)[C@]13CCCC[C@@H]1[C@H](C2)N(C)CC3 . Reported Cmax?
### Response 8.0

### Prompt Item under review: CC(=O)N[C@@H](C(=O)Oc1ccc2c(c1)[C@]13CCCC[C@@H]1C(C2)N(C)CC3)C(C)C . Reported Cmax?
### Response 127.7

* * *

- testSettings: rat, in vivo, po
measuredMetric: AUC compared to dextrorphan tartrate

CC[C@@H](C)[C@@H](NC(C)=O)C(=O)Oc1ccc2c(c1)[C@]13CCCC[C@@H]1C(C2)N(C)CC3 [3-(N-Ac-D-Ile)-dextrorphan]	much smaller
CC(=O)N[C@H](Cc1ccccc1)C(=O)Oc1ccc2c(c1)[C@]13CCCC[C@@H]1[C@H](C2)N(C)CC3 [3-(N-Ac-D-Phe)-dextrorphan]	much smaller
